FYI, the data here is from patent US11142533B2.

Tested On: ALK (L1198F/L1196M) (Homo sapiens, UniProt Q9UM73, L1196M/L1198F)
Measurement Description: Biochemical kinase assay (Reaction Biology)
Test Settings: 10 μM ATP
Assay Metric: pIC50
Answer as the number alone; pIC50 is minus log10 of concentration in mol/L.

Qu. Which value of pIC50 has been reported for O=C1NCC2(CC2)COc2ccc(F)cc2CN2c3nc4c1cnn4cc3OC[C@H]2C(F)F in the records?
Ans. 10.00

###

Measurement Description: Liver microsomal stability
Assay type: in vitro ADME
Test Settings: human, pooled liver microsomes, pH 7.4; 1 μM compound, 0.5 mg/mL liver microsome protein
For each of the compounds below, state its microsomal CLint at 1 µM.
Report only the number, with the unit µL/min/mg understood.

Qu. Which value of microsomal CLint at 1 µM has been reported for CC1(C)COc2ccc(F)cc2CN2c3nc4c(cnn4cc3OC[C@H]2C(F)F)C(=O)N1 [Compound 1] in the records?
Ans. 8.3

Qu. Which value of microsomal CLint at 1 µM has been reported for C[C@@H]1COc2ncc(F)cc2CN2c3nc4c(cnn4cc3OC[C@H]2C)C(=O)N1 [Comp. Ex. 1, reference compound] in the records?
Ans. 2.6

Qu. Which value of microsomal CLint at 1 µM has been reported for O=C1NCC2(CC2)COc2ccc(F)cc2CN2c3nc4c1cnn4cc3OC[C@H]2C(F)F [Compound 2] in the records?
Ans. 8.8

Qu. Which value of microsomal CLint at 1 µM has been reported for C[C@@H]1COc2cn3ncc4c3nc2N1Cc1cc(F)cnc1OCC(C)(C)NC4=O [Comp. Ex. 2, reference compound] in the records?
Ans. 3.9
